Provenance of the data: patent US11266643B2

Measured IC50 of individual entries
Molecular target: human PD-L1 (Homo sapiens (Human))
Sequence (Q9NZQ7 19-239): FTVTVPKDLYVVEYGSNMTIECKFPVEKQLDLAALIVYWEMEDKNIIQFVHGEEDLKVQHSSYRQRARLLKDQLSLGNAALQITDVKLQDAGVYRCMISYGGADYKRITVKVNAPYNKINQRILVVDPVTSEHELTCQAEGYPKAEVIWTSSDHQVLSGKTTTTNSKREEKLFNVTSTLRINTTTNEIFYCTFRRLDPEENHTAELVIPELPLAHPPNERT
Experiment: Enzyme-Linked Immunosorbent Assay (ELISA), PD-1/PD-L1 binding
Details: human PD-1/PD-L1 ELISA, plates coated with human PD-L1

Consider the reported IC50 for these molecules:
molecule	target-desc	measured
COc1cc(-c2cccc(-c3cccc(Nc4nccc5nccnc45)c3C)c2Cl)cc(F)c1CNC[C@@H]1CCC(=O)N1	human PD-L1 (Homo sapiens (Human))	< 10 nM
COc1cc(-c2cccc(-c3cccc(NC(=O)c4cn(C)c(=O)n(C)c4=O)c3C)c2C)cc(F)c1CNCc1ccnn1C	human PD-L1 (Homo sapiens (Human))	10 to 1000 nM
COc1cc(-c2cccc(-c3cccc(NC(=O)c4cn(C)c(=O)n(C)c4=O)c3C)c2C)cc(F)c1CN(C)C[C@@H]1CCC(=O)N1	human PD-L1 (Homo sapiens (Human))	< 10 nM
COc1cc(-c2cccc(-c3cccc(NC(=O)c4cn(C)c(=O)n(C)c4=O)c3C)c2F)cc(F)c1CN[C@H]1CCC(=O)NC1	human PD-L1 (Homo sapiens (Human))	< 10 nM
COc1cc(-c2cccc(-c3cccc(NC(=O)c4c[nH]c(=O)n(C)c4=O)c3C)c2C)cc(F)c1CNCC1CCNC(=O)C1 (stereo not shown)	human PD-L1 (Homo sapiens (Human))	< 10 nM

// IC50 lookup, key: COc1cc(-c2cccc(-c3cccc(NC(=O)c4cn(C)c(=O)n(C)c4=O)c3C)c2C)cc(F)c1CN[C@H]1CCOC[C@@H]1O (racemic)
< 10 nM

// IC50 lookup, key: COc1cc(-c2cccc(-c3cccc(NC(=O)c4cccn(C)c4=O)c3C)c2C)cc(F)c1CNCc1c[nH]c(=O)[nH]c1=O
< 10 nM

// IC50 lookup, key: COc1cc(-c2cccc(-c3cccc(Nc4nccc5nccnc45)c3C)c2C)cc(F)c1CN[C@H]1CCNC1=O
10 to 1000 nM
